- TARGET_UNDER_TEST: human orexin-2 receptor (OX2R) (Homo sapiens, UniProt O43614)
- Construct: expressed in transfected cells
- Sequence (O43614 whole entry): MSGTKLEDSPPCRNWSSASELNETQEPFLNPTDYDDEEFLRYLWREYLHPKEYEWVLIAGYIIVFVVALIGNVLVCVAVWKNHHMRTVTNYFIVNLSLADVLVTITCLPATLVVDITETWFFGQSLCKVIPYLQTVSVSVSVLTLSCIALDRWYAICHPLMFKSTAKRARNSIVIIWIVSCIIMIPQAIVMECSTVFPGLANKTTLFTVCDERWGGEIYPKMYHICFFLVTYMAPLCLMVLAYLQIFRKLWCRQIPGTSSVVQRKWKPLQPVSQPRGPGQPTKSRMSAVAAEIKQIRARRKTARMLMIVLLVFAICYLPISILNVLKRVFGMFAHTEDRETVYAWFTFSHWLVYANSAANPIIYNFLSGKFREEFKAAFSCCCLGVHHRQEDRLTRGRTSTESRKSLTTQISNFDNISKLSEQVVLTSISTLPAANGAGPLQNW
- ASSAY_REMARKS: Human OX2R IP1 assay
- Assay type: cell-based
- CONDITION_DETAILS: T-Rex CHO cells stably overexpressing human OX2R; IP1 accumulation; 1 hr at 37 degrees C; mean EC50
pEC50: −log10 of the molar value.
VALUE_TYPE: pEC50

[Q] Name the recorded pEC50 for O=C1COc2cccc(F)c2[C@H]2CC[C@H](CC2)OC[C@H]2[C@@H](NS(=O)(=O)C3CC3)CCCN12 (stereo in doubt) [Compound 74] .
[A] > 8.00

[Q] Then O=C1COc2ccccc2[C@H]2CC[C@H](CC2)OC[C@H]2[C@@H](NS(=O)(=O)C3CCCC3)CCCN12 (stereo in doubt) [Compound 33] ?
[A] > 8.00

[Q] Also check CS(=O)(=O)N[C@H]1CCCN2C(=O)[C@H](CO)Oc3ccccc3[C@H]3CC[C@H](CC3)OCC12 (stereo in doubt) [Compound 61]
[A] > 8.00
